Data credit: the supplement of paper PMC10567573

B1: CCDC89 (parent)
chain: LNAELEEKMMQEAEKLKAQGEYSR

Variants of: B1
Experiment: protein stability index of a GFP-peptide fusion (GPS, HEK-293T) (PSI 1-6); higher = more stable;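 note: lentivirally expressed fusions sorted by FACS into six bins by GFP to DsRed ratio, PSI derived from sequencing read proportions per bin multiplied by bin number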
Conditions: c terminus: a fixed tail appended
Class label 1: protein stability index at least 5. Class label 0: protein stability index below 5.

q: Is protein stability index at least 5? Consider LNAELEEKMMQEAEKKKAQGEYSR [L16K]
a: label 0

q: Record LNAELEEKMMQEAEKLKAQGEYFR [S23F] ; criterion: protein stability index no lower than 5. Met?
a: label 0

q: Entry LNAELEEKMMQEAEKLKAQGEYSC [R24C] : is its protein stability index no less than 5?
a: label 1

q: Could you please find out whether LNAELEEKMMQEAEKLKPQGEYSR [A18P] has protein stability index that meets 5 or exceeds it?
a: label 0

q: Does protein stability index meet or surpass 5 for LNFELEEKMMQEAEKLKAQGEYSR [A3F] ?
a: label 0

q: Threshold query (protein stability index >= 5) on LNAELEEKMMLEAEKLKAQGEYSR [Q11L]
a: label 0

q: Does protein stability index meet or surpass 5 for LNAEHEEKMMQEAEKLKAQGEYSR [L5H] ?
a: label 1

q: Decide: protein stability index of LRAELEEKMMQEAEKLKAQGEYSR [N2R] >= 5?
a: label 0

q: Is protein stability index at least 5? Consider LNAELEEKMMQEAEKLYAQGEYSR [K17Y]
a: label 0

q: Can LNAELEEKMNQEAEKLKAQGEYSR [M10N] be said to have protein stability index at or above 5?
a: label 1
